Target: hPPARdelta (Homo sapiens)
Construct: expressed in transfected cells; host or cells: COS-7 (monkey kidney fibroblasts)
Sequence (Q03181 211-439 limits assumed): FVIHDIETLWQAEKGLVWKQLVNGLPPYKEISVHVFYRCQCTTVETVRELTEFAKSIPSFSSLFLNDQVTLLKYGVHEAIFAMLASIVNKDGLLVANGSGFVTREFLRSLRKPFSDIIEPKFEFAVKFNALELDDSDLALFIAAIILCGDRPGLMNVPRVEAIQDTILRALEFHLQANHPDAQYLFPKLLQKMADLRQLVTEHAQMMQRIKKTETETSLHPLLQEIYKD
Experiment: PPAR activation: Gal4-hPPARδ chimera luciferase transactivation in COS-7 cells, Method 2
Assay type: cell-based
Conditions: COS-7, 24 h, maximum percentage response relative to the reference GW501516, read-out: hPPARdelta % max
Readings of Emax for the listed compounds
observation-type: Emax (%)

>>> print(df.to_string())
                                   compound  unit_tag  number
0  CC(C)(Oc1ccc(CCC(=O)c2ccc(-c3ccc(C(F)(F)F)cc3)s2)cc1)C(=O)O         %      75
1  CC(C)OC(CCc1ccc(OC(C)(C)C(=O)O)c(Cl)c1Cl)c1ccc(-c2ccc(C(F)(F)F)cc2)s1 (stereo not shown)         %      34
2  COC(CCc1ccc(OC(C)(C)C(=O)O)c(Cl)c1Cl)c1ccc(-c2ccc(C(F)(F)F)cc2)s1 (stereo not shown)         %    78.3
3  CON=C(CCc1ccc(OC(C)(C)C(=O)O)c(Cl)c1Cl)c1ccc(-c2ccc(C(F)(F)F)cc2)s1 (mixture of isomers)         %      78
4  CC(C)(Oc1ccc(CCC(OCc2cccnc2)c2ccc(-c3ccc(C(F)(F)F)cc3)s2)c(Cl)c1Cl)C(=O)O (stereo not shown)         %      90
5  CCOC(CCc1ccc(OC(C)(C)C(=O)O)c(Cl)c1Cl)c1ccc(-c2ccc(C(F)(F)F)cc2)s1 (stereo not shown)         %      76
6  CC(C)(Oc1ccc(CCC(OCc2ccccc2)c2ccc(-c3ccc(C(F)(F)F)cc3)s2)c(F)c1F)C(=O)O (stereo not shown)         %      97
7  CC(C)(Oc1ccc(CCC(=O)c2ccc(-c3ccc(Br)cc3)s2)c(Cl)c1Cl)C(=O)O         %     104
8  O=C(O)COc1ccc(CCC(=O)c2ccc(-c3ccc(C(F)(F)F)cc3)s2)cc1F         %      75
9  CC(C)(Oc1ccc(CCC(=O)c2ccc(-c3ccccc3)s2)c(Cl)c1Cl)C(=O)O         %      88

* * *

Target: hPPARdelta (Homo sapiens)
Construct: expressed in transfected cells; host or cells: COS-7 (monkey kidney fibroblasts)
Test: PPAR activation: Gal4-hPPARδ chimera luciferase transactivation in COS-7 cells, Method 2
Type: cell-based
Details: COS-7, 24 h, 1% Ultroser
observation-type: log10(EC50) (log10 of the value in µM)

>>> print(df.to_string())
                                   molecule  number
0  CC(C)(Oc1ccc(CCC(=O)c2ccc(-c3ccccc3)s2)c(Cl)c1Cl)C(=O)O   -0.46
1  CC(C)(Oc1ccc(CCC(OCc2ccccc2)c2ccc(-c3ccc(C(F)(F)F)cc3)s2)c(Cl)c1Cl)C(=O)O (centres unmarked)   -1.52
2  CC(C)(Oc1ccc(CCC(=O)c2ccc(-c3ccc(Br)cc3)s2)c(Cl)c1Cl)C(=O)O   -1.30
3  CCC(Oc1ccc(CCC(O)c2ccc(-c3ccc(C(F)(F)F)cc3)s2)cc1F)C(=O)O (centres unmarked)    0.18
4  CCOC(CCc1ccc(OC(C)(C)C(=O)O)c(Cl)c1Cl)c1ccc(-c2ccc(C(F)(F)F)cc2)s1 (centres unmarked)   -2.00

* * *

Molecular target: hPPARdelta (Homo sapiens)
Construct: expressed in transfected cells; host or cells: COS-7 (monkey kidney fibroblasts)
Assay: PPAR activation: Gal4-hPPARδ chimera luciferase transactivation in COS-7 cells, Method 2
Format: cell-based
Settings: COS-7, 24 h, maximum percentage response relative to the reference GW501516, read-out: hPPARdelta % max
observation-type: Emax (%)

                                   compound            target_of_assay  observation_type  number
0  CSc1ccc(-c2ccc(C(=O)CCc3ccc(OC(C)(C)C(=O)O)c(Cl)c3Cl)s2)cc1  hPPARdelta (Homo sapiens)              Emax     107
1  CC(C)(Oc1ccc(CCC(OCc2ccc(I)cc2)c2ccc(-c3ccc(C(F)(F)F)cc3)s2)c(Cl)c1Cl)C(=O)O (stereo not shown)  hPPARdelta (Homo sapiens)              Emax      92
2  Cc1cc(CCC(=O)c2ccc(-c3ccc(C(F)(F)F)cc3)s2)ccc1OC(C)(C)C(=O)O  hPPARdelta (Homo sapiens)              Emax     107
3  CC(C)(Oc1ccc(CCC(OCC2CCCCC2)c2ccc(-c3ccc(C(F)(F)F)cc3)s2)c(Cl)c1Cl)C(=O)O (stereo not shown)  hPPARdelta (Homo sapiens)              Emax    82.1

* * *

# pEC50 per record follows
Target: hPPARdelta (Homo sapiens)
Construct: expressed in transfected cells; host or cells: COS-7 (monkey kidney fibroblasts)
Experiment: PPAR activation: Gal4-hPPARδ chimera luciferase transactivation in COS-7 cells, Method 2
Type: cell-based
Settings: COS-7, 24 h, 1% Ultroser
pEC50: −log10 of the molar value.
observation-type: pEC50

>>> df
                                   molecule            target_of_assay  number
0  CC(C)(Oc1ccc(CCC(OCC2CCCCC2)c2ccc(-c3ccc(C(F)(F)F)cc3)s2)c(Cl)c1Cl)C(=O)O (stereo not shown)  hPPARdelta (Homo sapiens)    6.59
1  COC(CCc1ccc(OC(C)(C)C(=O)O)c(Cl)c1Cl)c1ccc(-c2ccc(C(F)(F)F)cc2)s1 (stereo not shown)  hPPARdelta (Homo sapiens)    8.30
2  CC(C)(Oc1ccc(CCC(OCc2ccccc2)c2ccc(-c3ccc(C(F)(F)F)cc3)s2)c(F)c1F)C(=O)O (stereo not shown)  hPPARdelta (Homo sapiens)    6.74
3  CC(C)(Oc1ccc(CCC(=O)c2ccc(-c3ccc(C(F)(F)F)cc3)s2)cc1)C(=O)O  hPPARdelta (Homo sapiens)    6.44
4  CON=C(CCc1ccc(OC(C)(C)C(=O)O)c(Cl)c1Cl)c1ccc(-c2ccc(C(F)(F)F)cc2)s1 (mixture of isomers)  hPPARdelta (Homo sapiens)    7.30
5  CSc1ccc(-c2ccc(C(=O)CCc3ccc(OC(C)(C)C(=O)O)c(Cl)c3Cl)s2)cc1  hPPARdelta (Homo sapiens)    7.15
6  CC(C)(Oc1ccc(CCC(OCc2ccc(I)cc2)c2ccc(-c3ccc(C(F)(F)F)cc3)s2)c(Cl)c1Cl)C(=O)O (stereo not shown)  hPPARdelta (Homo sapiens)    6.28

* * *

Catalogue of Emax values
Target: hPPARgamma (Homo sapiens)
Construct: expressed in transfected cells; host or cells: COS-7 (monkey kidney fibroblasts)
Sequence (P37231 238-503 limits assumed): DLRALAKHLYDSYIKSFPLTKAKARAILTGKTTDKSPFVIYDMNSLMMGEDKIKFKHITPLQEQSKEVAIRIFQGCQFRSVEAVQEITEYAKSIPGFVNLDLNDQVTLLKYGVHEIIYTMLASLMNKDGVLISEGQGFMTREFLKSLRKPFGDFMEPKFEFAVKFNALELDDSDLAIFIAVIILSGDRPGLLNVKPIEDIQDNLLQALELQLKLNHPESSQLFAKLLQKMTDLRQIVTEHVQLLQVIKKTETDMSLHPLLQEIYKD
Test: PPAR activation: Gal4-hPPARγ chimera luciferase transactivation in COS-7 cells, Method 2
Assay type: cell-based
Conditions: COS-7, 24 h; maximum percentage response relative to the reference rosiglitazone; Method 2; read-out: hPPARgamma % max
Method: The activation of the PPARs was evaluated in vitro on a line of monkey kidney fibroblasts (COS-7) by measuring the transcriptional activity of chimeras constituted of the DNA binding domain of the Gal4 transcription factor of yeast and the ligand binding domain of the various PPARs. Only the application of the transfection stage is slightly different. The details are presented below. […]
observation-type: Emax (%)

                                   compound  observation_type  number
0  CC(C)(Oc1ccc(CCC(OCc2ccccc2)c2ccc(-c3ccc(C(F)(F)F)cc3)s2)c(F)c1F)C(=O)O (centres unmarked) [Compound 63]              Emax      44
1  CC(C)(Oc1ccc(CCC(OCC2CCCCC2)c2ccc(-c3ccc(C(F)(F)F)cc3)s2)c(Cl)c1Cl)C(=O)O (centres unmarked) [Compound 42]              Emax      47
2  COC(CCc1ccc(OC(C)(C)C(=O)O)c(Cl)c1Cl)c1ccc(-c2ccc(C(F)(F)F)cc2)s1 (centres unmarked) [Compound 40]              Emax      32
3  COC(CCc1ccc(OC(C)(C)C(=O)O)c(Cl)c1Cl)c1ccc(-c2ccc(C(F)(F)F)cc2)o1 (centres unmarked) [Compound 72]              Emax      70
4  CCC(Oc1ccc(CCC(O)c2ccc(-c3ccc(C(F)(F)F)cc3)s2)cc1F)C(=O)O (centres unmarked) [Compound 30]              Emax      45

* * *

Target: hPPARalpha (Homo sapiens)
Construct: expressed in transfected cells; host or cells: COS-7 (monkey kidney fibroblasts)
Sequence (Q07869 239-466 limits assumed): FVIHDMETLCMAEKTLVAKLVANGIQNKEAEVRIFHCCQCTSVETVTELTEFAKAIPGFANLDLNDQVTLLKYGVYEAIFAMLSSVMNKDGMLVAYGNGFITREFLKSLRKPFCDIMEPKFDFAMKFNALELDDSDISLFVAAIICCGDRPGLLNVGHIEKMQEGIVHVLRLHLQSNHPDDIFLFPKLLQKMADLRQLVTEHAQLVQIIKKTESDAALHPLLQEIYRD
Test: PPAR activation: Gal4-hPPARα chimera luciferase transactivation in COS-7 cells, Method 1
Format: cell-based
Details: COS-7, 24 h
pEC50: −log10 of the molar value.
Threshold check on pEC50: at or above 7 gives label 1, strictly below gives label 0.

>>> print(df.to_string())
                                    compound  assigned_label
 0  CC(C)(Oc1ccc(CCC(=O)c2ccc(-c3ccc(C(F)(F)F)cc3)s2)c(Cl)c1Cl)C(=O)O         label 1
 1  CC(C)(CCCOc1ccc(CCC(=O)c2ccc(-c3ccc(C(F)(F)F)cc3)s2)c(Cl)c1Cl)C(=O)O         label 0
 2  CC(C)(Oc1ccc(CCC(=NO)c2ccc(-c3ccc(C(F)(F)F)cc3)s2)c(Cl)c1Cl)C(=O)O (mixture of isomers)         label 1
 3  CCC(Oc1ccc(CCC(=O)c2ccc(-c3ccc(C(F)(F)F)cc3)s2)cc1Br)C(=O)O (centres unmarked)         label 1
 4  O=C(O)COc1ccc(CCC(OCc2ccccc2)c2ccc(-c3ccc(C(F)(F)F)cc3)s2)cc1F (centres unmarked)         label 0
 5  O=C(O)COc1ccc(CCC(=O)c2ccc(-c3ccc(C(F)(F)F)cc3)s2)cc1Br         label 1
 6  CC(C)(Oc1ccc(CCC(=O)c2ccc(-c3ccc(C(F)(F)F)cc3)s2)cc1Br)C(=O)O         label 1
 7  CC(C)(Oc1ccc(CCC(=O)c2ccc(-c3ccc(C(F)(F)F)cc3)s2)cc1Cl)C(=O)O         label 1
 8  CC(C)(Oc1ccc(CCC(=O)c2ccc(-c3ccc(OC(F)(F)F)cc3)s2)c(Cl)c1Cl)C(=O)O         label 1
 9  O=C(O)COc1ccc(CCC(=O)c2ccc(-c3ccc(C(F)(F)F)cc3)s2)cc1         label 1
10  CCC(Oc1ccc(CCC(OCc2ccccc2)c2ccc(-c3ccc(C(F)(F)F)cc3)s2)cc1F)C(=O)O (centres unmarked)         label 0
11  CCC(Oc1ccc(CCC(=O)c2ccc(-c3ccc(C(F)(F)F)cc3)s2)cc1)C(=O)O (centres unmarked)         label 1
12  CCC(Oc1ccc(CCC(=O)c2ccc(-c3ccc(C(F)(F)F)cc3)s2)c(Cl)c1Cl)C(=O)O (centres unmarked)         label 1
